Assay: Tissue distribution of radiotracer in rats
Format: in vivo, male Wistar rats
Settings: rat, blood; 30 min, iv; read-out: Tissue distribution, blood
Quantity Name: tissue uptake at 0.5 h (%ID/g)
Numeric only. Scale: %ID/g

Q) Respond only with tissue uptake at 0.5 h recorded for O[C@@H]1CCN(Cc2cccc([125I])c2)C[C@H]1N1CCC(c2ccccc2)CC1 (single isomer, unassigned) [(-)-[^125 I]12h]
A) 0.11

----------
Assay: Blocking experiment 2: effect of vesamicol pretreatment on radiotracer accumulation
Type: in vivo, male Wistar rats
Settings: rat, gonads, iv, 2 uCi, Group 2: (dl)vesamicol.HCl 1.01 umol/Kg pretreatment, 30 min postradiotracer; read-out: Accumulation after pretreatment, gonads
Quantity Name: tissue uptake at 0.5 h (%ID/g)
Record the value in %ID/g, omitting the unit from your answer.

Q) Report measured tissue uptake at 0.5 h; entry is O[C@@H]1CCN(Cc2cccc([125I])c2)C[C@H]1N1CCC(c2ccccc2)CC1 (single isomer, unassigned) [(-)-[^125 I]12h]
A) 0.16
